Please provide measured fold induction for the entries that follow.
- Assay notes: AMES test (reverse mutagenicity test), strain TA98, with and without S-9
- Assay type: cell-based
- Conditions: s9, TA98, without S9, 1250 μg/plate; read-out: magnification of the total number of the mutant colony to the control
Lab note: record the figure alone, no unit after it.

Incoming: Supply fold induction value. Item: CCCCc1ccc(N=Nc2c(S(=O)(=O)O)cc3cc(S(=O)(=O)O)c(N=Nc4ccc(C5(c6ccc(N=Nc7ccc(N(CC)CC)cc7C)cc6)CCCCC5)cc4)c(N)c3c2O)cc1
Outgoing: 0.62

Incoming: Supply fold induction value. Item: CCCCc1ccc(N=Nc2c(S(=O)(=O)O)cc3cc(S(=O)(=O)O)c(N=Nc4ccc(C5(c6ccc(N=Nc7ccc(N)cc7O)cc6)CCCCC5)cc4)c(N)c3c2O)cc1
Outgoing: 0.95

Incoming: Supply fold induction value. Item: CCCCc1ccc(N=Nc2c(S(=O)(=O)O)cc3cc(S(=O)(=O)O)c(N=Nc4ccc(C5(c6ccc(N=Nc7ccc(N(C)C)cc7C(=O)O)cc6)CCCCC5)cc4)c(N)c3c2O)cc1
Outgoing: 0.76

Incoming: Supply fold induction value. Item: Nc1ccc(N=Nc2ccc(C3(c4ccc(N=Nc5c(S(=O)(=O)O)cc6cc(S(=O)(=O)O)c(N=Nc7ccccc7)c(O)c6c5N)cc4)CCCCC3)cc2)c(O)c1
Outgoing: 0.87

Incoming: Supply fold induction value. Item: CC(C)c1ccc(N=Nc2c(S(=O)(=O)O)cc3cc(S(=O)(=O)O)c(N=Nc4ccc(C5(c6ccc(N=Nc7ccc(N)cc7O)cc6)CCCCC5)cc4)c(N)c3c2O)cc1
Outgoing: 0.83

Incoming: Supply fold induction value. Item: CCCCc1ccc(N=Nc2c(S(=O)(=O)O)cc3cc(S(=O)(=O)O)c(N=Nc4ccc(C5(c6ccc(N=Nc7ccc(O)cc7O)cc6)CCCCC5)cc4)c(N)c3c2O)cc1
Outgoing: 0.39
